Target: human sodium-glucose cotransporter 2 (SGLT2) (Homo sapiens)
Sequence (P31639 whole entry): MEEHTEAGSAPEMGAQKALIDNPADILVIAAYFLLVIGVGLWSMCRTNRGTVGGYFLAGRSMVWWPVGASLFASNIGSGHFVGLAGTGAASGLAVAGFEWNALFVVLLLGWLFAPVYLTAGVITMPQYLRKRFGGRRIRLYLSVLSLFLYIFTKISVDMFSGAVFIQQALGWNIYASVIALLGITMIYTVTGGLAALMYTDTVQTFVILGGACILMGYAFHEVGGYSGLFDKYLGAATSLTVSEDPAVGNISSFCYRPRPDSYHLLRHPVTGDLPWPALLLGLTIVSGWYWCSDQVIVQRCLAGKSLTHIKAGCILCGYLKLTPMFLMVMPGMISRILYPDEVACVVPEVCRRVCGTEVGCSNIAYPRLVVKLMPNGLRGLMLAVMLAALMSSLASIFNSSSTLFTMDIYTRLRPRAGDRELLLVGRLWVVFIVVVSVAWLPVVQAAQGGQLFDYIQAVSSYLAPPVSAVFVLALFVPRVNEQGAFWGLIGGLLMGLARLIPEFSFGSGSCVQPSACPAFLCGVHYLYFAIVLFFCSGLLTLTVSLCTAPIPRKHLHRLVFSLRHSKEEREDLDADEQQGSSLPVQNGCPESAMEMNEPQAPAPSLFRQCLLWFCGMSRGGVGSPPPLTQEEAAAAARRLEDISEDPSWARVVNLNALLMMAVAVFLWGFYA
Assay: In vitro SGLT2 inhibition, methyl-α-D-[U-14C]glucopyranoside uptake in NIH3T3-hSGLT2 cells
Conditions: read-out: IC50 ± SD SGLT2
Method: Inhibition of the compounds of formula I against human sodium-glucose cotransporter 2 (SGLT2) was determined experimentally and the experimental procedures were carried out as reference^1. […] SGLT2 transports D-glucose at 1:1 sodium-glucose ratio, glucose is replaced by the non-metabolic and isotope labeled methyl-aD-[U-^14C] glucopyranoside and methyl-aD-glucopyranoside, and the amount of isotope transferred into the cells was determined. […] IC50 is calculated as follows: […]
reported_metric: IC50 (nM)

Here is how some compounds turned out for IC50.
| compound | IC50 / nM |
| --- | --- |
| CCOc1ccc(Cc2cc3c(cc2Cl)CO[C@]32O[C@H](C)[C@@H](O)[C@H](O)[C@H]2O)cc1 | 15.7 |
| CCc1ccc(Cc2cc3c(cc2Cl)CO[C@]32O[C@H](C)[C@@H](O)[C@H](O)[C@H]2O)cc1 | 29.7 |
| CCc1ccc(Cc2ccc3c(c2)[C@]2(OC3)O[C@H](C)[C@@H](O)[C@H](O)[C@H]2O)cc1 | 63.5 |
| C[C@H]1O[C@]2(OCc3cc(Cl)c(Cc4cc5ccccc5o4)cc32)[C@H](O)[C@@H](O)[C@@H]1O | 32.4 |
| C[C@H]1O[C@]2(OCc3cc(Cl)c(Cc4ccc(CCO)s4)cc32)[C@H](O)[C@@H](O)[C@@H]1O | 3.6 |

a = CCc1ccc(Cc2cc3c(cc2C)CO[C@]32O[C@H](C)[C@@H](O)[C@H](O)[C@H]2O)s1
b = C[C@H]1O[C@]2(OCc3cc(Cl)c(Cc4cc5ccccc5s4)cc32)[C@H](O)[C@@H](O)[C@@H]1O
c = CCc1ccc(Cc2ccc3c(c2)[C@]2(OC3)O[C@H](C)[C@@H](O)[C@H](O)[C@H]2O)s1
I would appreciate it if you could sort these 3 compounds by IC50, starting from the smallest number. Present the labels in the sequence the task asks for.
a, b, c

P = COCCc1ccc(Cc2cc3c(cc2Cl)CO[C@]32O[C@H](C)[C@@H](O)[C@H](O)[C@H]2O)s1
Q = CCc1ccc(Cc2cc3c(cc2Cl)CO[C@]32O[C@H](C)[C@@H](O)[C@H](O)[C@H]2O)s1
R = C[C@H]1O[C@]2(OCc3cc(Cl)c(Cc4ccc(-c5ccc(F)cc5)s4)cc32)[C@H](O)[C@@H](O)[C@@H]1O
I would appreciate it if you could sort these 3 compounds by IC50, starting from the smallest number. Present the labels in the sequence the task asks for.
Q, R, P

###

Target: human sodium-glucose cotransporter 2 (SGLT2) (Homo sapiens)
Construct: expressed in transfected cells; host or cells: NIH3T3 (mouse fibroblast) cells expressing hSGLT2
Assay: In vitro SGLT2 inhibition, methyl-α-D-[U-14C]glucopyranoside uptake in NIH3T3-hSGLT2 cells
Format: cell-based
Details: SGLT2, 100 nM; read-out: % Inhibition rate ± SD 100 nM
reported_metric: inhibition at 0.1 µM (%)

Here is how some molecules turned out for inhibition at 0.1 µM.
| structure_as_smiles | unit_of_measure | inhibition at 0.1 µM |
| --- | --- | --- |
| CCc1ccc(Cc2cc3c(cc2Cl)CO[C@]32O[C@H](C)[C@@H](O)[C@H](O)[C@H]2O)cc1 | % | 79.8 |
| CCOc1ccc(Cc2ccc3c(c2)[C@]2(OC3)O[C@H](C)[C@@H](O)[C@H](O)[C@H]2O)cc1 | % | 27.6 |
| CCc1ccc(Cc2cc3c(cc2Cl)CO[C@]32O[C@H](C)[C@@H](O)[C@H](O)[C@H]2O)s1 | % | 86.1 |
| CC(=O)c1ccc(Cc2cc3c(cc2Cl)CO[C@]32O[C@H](C)[C@@H](O)[C@H](O)[C@H]2O)s1 | % | 22.6 |

I = C[C@H]1O[C@]2(OCc3cc(Cl)c(Cc4ccc(-c5ccccn5)s4)cc32)[C@H](O)[C@@H](O)[C@@H]1O
II = C[C@H]1O[C@]2(OCc3ccc(Cc4ccc(Cl)s4)cc32)[C@H](O)[C@@H](O)[C@@H]1O
Two entries are listed, I and II . Which one carries the higher inhibition at 0.1 µM? Mark your selection by writing its label.
II
(II: 45.8%, I: 20.7%)

###

Biological target: hSGLT1 (Homo sapiens, UniProt P13866)
Sequence (P13866 whole entry): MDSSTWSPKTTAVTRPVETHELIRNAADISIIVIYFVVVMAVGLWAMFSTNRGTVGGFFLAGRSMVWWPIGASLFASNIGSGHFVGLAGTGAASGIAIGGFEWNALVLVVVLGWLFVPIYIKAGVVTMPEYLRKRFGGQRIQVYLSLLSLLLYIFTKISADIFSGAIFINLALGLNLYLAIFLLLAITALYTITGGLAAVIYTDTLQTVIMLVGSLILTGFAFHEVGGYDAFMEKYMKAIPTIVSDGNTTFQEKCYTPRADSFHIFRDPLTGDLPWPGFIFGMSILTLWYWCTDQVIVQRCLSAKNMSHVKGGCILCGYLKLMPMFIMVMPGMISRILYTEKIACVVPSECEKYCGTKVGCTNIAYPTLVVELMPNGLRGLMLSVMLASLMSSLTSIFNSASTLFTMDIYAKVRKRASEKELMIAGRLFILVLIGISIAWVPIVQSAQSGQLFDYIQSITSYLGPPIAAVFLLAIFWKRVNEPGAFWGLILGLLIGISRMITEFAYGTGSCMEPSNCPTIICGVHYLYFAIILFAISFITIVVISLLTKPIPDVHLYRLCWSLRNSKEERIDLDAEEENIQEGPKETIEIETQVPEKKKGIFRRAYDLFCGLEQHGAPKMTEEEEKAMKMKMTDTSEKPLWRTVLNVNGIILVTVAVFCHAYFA
Test: In vitro SGLT1 inhibition (hSGLT1 IC50 test)
Assay type: cell-based
Settings: read-out: IC50 ± SD SGLT1
pIC50: −log10 of the molar value.
reported_metric: pIC50

Here is how some compounds turned out for pIC50.
| compound | assay_system | pIC50 |
| --- | --- | --- |
| CCc1ccc(Cc2ccc3c(c2)[C@]2(OC3)O[C@H](C)[C@@H](O)[C@H](O)[C@H]2O)cc1 | hSGLT1 (Homo sapiens, UniProt P13866) | 4.65 |
| CCc1ccc(Cc2cc3c(cc2F)CO[C@]32O[C@H](C)[C@@H](O)[C@H](O)[C@H]2O)s1 | hSGLT1 (Homo sapiens, UniProt P13866) | 4.59 |
| C[C@H]1O[C@]2(OCc3cc(Cl)c(Cc4ccc(CCO)s4)cc32)[C@H](O)[C@@H](O)[C@@H]1O | hSGLT1 (Homo sapiens, UniProt P13866) | 6.22 |
| C[C@H]1O[C@]2(OCc3cc(Cl)c(Cc4cc5ccccc5s4)cc32)[C@H](O)[C@@H](O)[C@@H]1O | hSGLT1 (Homo sapiens, UniProt P13866) | 5.71 |
| CCc1ccc(Cc2cc3c(cc2C)CO[C@]32O[C@H](C)[C@@H](O)[C@H](O)[C@H]2O)s1 | hSGLT1 (Homo sapiens, UniProt P13866) | 5.71 |

a = CC(O)c1ccc(Cc2cc3c(cc2Cl)CO[C@]32O[C@H](C)[C@@H](O)[C@H](O)[C@H]2O)s1 (stereo partly drawn)
b = CCOc1ccc(Cc2cc3c(cc2Cl)CO[C@]32O[C@H](C)[C@@H](O)[C@H](O)[C@H]2O)cc1
c = COCCc1ccc(Cc2cc3c(cc2Cl)CO[C@]32O[C@H](C)[C@@H](O)[C@H](O)[C@H]2O)s1
d = C[C@H]1O[C@]2(OCc3cc(Cl)c(Cc4ccc(-c5ccc(F)cc5)s4)cc32)[C@H](O)[C@@H](O)[C@@H]1O
e = CCc1ccc(Cc2cc3c(cc2Cl)CO[C@]32O[C@H](C)[C@@H](O)[C@H](O)[C@H]2O)cc1
I would appreciate it if you could sort these 5 compounds by pIC50, starting from the smallest number. Present the labels in the sequence the task asks for.
d, a, c, b, e
(d: 4.15, a: 5.14, c: 5.44, b: 6.04, e: 6.39)

1 = C[C@H]1O[C@]2(OCc3cc(Cl)c(Cc4cc5ccccc5o4)cc32)[C@H](O)[C@@H](O)[C@@H]1O
2 = CCc1ccc(Cc2cc3c(cc2Cl)CO[C@]32O[C@H](C)[C@@H](O)[C@H](O)[C@H]2O)s1
Two entries are listed, 1 and 2 . Which one carries the higher pIC50? Mark your selection by writing its label.
2

###

Target: human sodium-glucose cotransporter 2 (SGLT2) (Homo sapiens)
Construct: expressed in transfected cells; host or cells: NIH3T3 (mouse fibroblast) cells expressing hSGLT2
Experiment: In vitro SGLT2 inhibition, methyl-α-D-[U-14C]glucopyranoside uptake in NIH3T3-hSGLT2 cells
Assay type: cell-based
Conditions: SGLT2, 10 nM; read-out: % Inhibition rate ± SD 10 nM
reported_metric: inhibition at 0.01 µM (%)

Here is how some compounds turned out for inhibition at 0.01 µM.
| compound | unit_of_measure | inhibition at 0.01 µM |
| --- | --- | --- |
| C[C@H]1O[C@]2(OCc3cc(Cl)c(Cc4ccc(-c5ccccn5)s4)cc32)[C@H](O)[C@@H](O)[C@@H]1O | % | 25 |
| C[C@H]1O[C@]2(OCc3cc(Cl)c(Cc4ccc5occc5c4)cc32)[C@H](O)[C@@H](O)[C@@H]1O | % | 4.8 |
| C[C@H]1O[C@]2(OCc3ccc(Cc4cc5ccccc5s4)cc32)[C@H](O)[C@@H](O)[C@@H]1O | % | 46.9 |
| COc1ccc(Cc2ccc3c(c2)[C@]2(OC3)O[C@H](C)[C@@H](O)[C@H](O)[C@H]2O)cc1 | % | 26 |
| C[C@H]1O[C@]2(OCc3cc(Cl)c(Cc4cc5ccccc5o4)cc32)[C@H](O)[C@@H](O)[C@@H]1O | % | 24.4 |
| CCCc1ccc(Cc2ccc3c(c2)[C@]2(OC3)O[C@H](C)[C@@H](O)[C@H](O)[C@H]2O)s1 | % | 34.7 |

a = CCOc1ccc(Cc2cc3c(cc2Cl)CO[C@]32O[C@H](C)[C@@H](O)[C@H](O)[C@H]2O)cc1
b = C#Cc1cc2c(cc1Cc1ccc(CC)s1)[C@]1(OC2)O[C@H](C)[C@@H](O)[C@H](O)[C@H]1O
c = CC(O)c1ccc(Cc2cc3c(cc2Cl)CO[C@]32O[C@H](C)[C@@H](O)[C@H](O)[C@H]2O)s1 (some centres unmarked)
hey, can you rank those compounds up there by inhibition at 0.01 µM? biggest number first please Present the labels in the sequence the task asks for.
a, b, c
(a: 51.5%, b: 33.9%, c: 22.1%)

a = C[C@H]1O[C@]2(OCc3cc(F)c(Cc4cc5ccccc5o4)cc32)[C@H](O)[C@@H](O)[C@@H]1O
b = CCc1ccc(Cc2cc3c(cc2C)CO[C@]32O[C@H](C)[C@@H](O)[C@H](O)[C@H]2O)s1
c = Cc1ccc(Cc2ccc3c(c2)[C@]2(OC3)O[C@H](C)[C@@H](O)[C@H](O)[C@H]2O)cc1
d = C[C@H]1O[C@]2(OCc3cc(Cl)c(Cc4ccc(C(F)(F)F)cc4)cc32)[C@H](O)[C@@H](O)[C@@H]1O
hey, can you rank those compounds up there by inhibition at 0.01 µM? biggest number first please Present the labels in the sequence the task asks for.
d, b, c, a
